Ok so here's the combined literature set: Ki for 5-hydroxytryptamine receptor 2B (Homo sapiens).
QUANTITY_KIND: Ki (nM)

Sample records with Ki:
- MOLECULE: "CCCCCCOc1nsnc1C1=CCCN(C)C1"
  ASSAYED_TARGET: "5-hydroxytryptamine receptor 2B (Homo sapiens)"
  QUANTITY_KIND: "Ki"
  UNITS_LABEL: "nM"
  MEASURED_VALUE: 19.9
- MOLECULE: "COc1ccc(CC2NCCc3c2[nH]c2ccccc32)cc1OC (centres undefined)"
  ASSAYED_TARGET: "5-hydroxytryptamine receptor 2B (Homo sapiens)"
  QUANTITY_KIND: "Ki"
  UNITS_LABEL: "nM"
  MEASURED_VALUE: 1
- MOLECULE: "CCc1c(COc2ccc(C=O)cc2)ccc(C(C)=O)c1O"
  ASSAYED_TARGET: "5-hydroxytryptamine receptor 2B (Homo sapiens)"
  QUANTITY_KIND: "Ki"
  UNITS_LABEL: "nM"
  MEASURED_VALUE: 7910

(I) COc1ccc2c(c1O[C@H]1CCNC1)CCC2
(II) OC(c1ccccc1)C1CCN(CCc2ccccc2)CC1 (centres undefined)
Hi! Which is lower in terms of Ki, the first one I or the second one II ? Please reply using the label of the selected record. I
(I: 42.7 nM, II: 3310 nM)

(a) Cc1nc2sccn2c(=O)c1CCN1CCC(=C(c2ccc(F)cc2)c2ccc(F)cc2)CC1
(b) CCCc1c(COc2ccc(C=NN=C(N)N)c(OC)c2)ccc(C(=O)CC)c1O
(c) CC(C)c1cc(-c2ccc(F)c3ccccc23)nc(N)n1
(d) CN(C)c1nc(N[C@H]2CC[C@@H](NC(=O)c3ccc(F)c(F)c3)CC2)nc2ccccc12
(e) Cn1ccc2cc3c(cc21)CCN3C(=O)Nc1cccnc1
Sort entries by Ki from minimum to maximum value. Your answer should be the labels, listed in the requested order. c, a, d, e, b

(1) Cn1ccc2cc(NC(=O)Nc3cccnc3)ccc21
(2) Cc1ccc(C)c(COc2ccc(C=NN=C(N)N)cc2)c1
(3) CCCc1cc(C(C)(C)C)ccc1Oc1cccc(C=NN=C(N)N)c1
Sort entries by Ki from minimum to maximum value. Your answer should be the labels, listed in the requested order. 2, 1, 3
(2: 388 nM, 1: 631 nM, 3: 2930 nM)

----------
Ok so here's the combined literature set: Ki for 5-hydroxytryptamine receptor 2B (Homo sapiens, UniProt P41595).
QUANTITY_KIND: Ki (nM)

Sample records with Ki:
- COMPOUND: "NC(N)=NN=Cc1cccc(OCc2ccc(C(=O)c3ccccc3)cc2)c1"
  Ki [nM]: 477
- COMPOUND: "NC(N)=NN=C(c1ccccc1)C1CCC(Cl)S1 (stereo unspecified)"
  Ki [nM]: 472

(A) OC(CN1CCN(c2cccc(Cl)c2)CC1)C(c1ccccc1)c1ccccc1 (stereo unspecified)
(B) CCCc1c(COc2ccc(C=NN=C(N)N)cc2)ccc(C(C)=O)c1O
(C) NCCC(=O)Nc1ccc2cnn(S(=O)(=O)c3cccc4ccccc34)c2c1
(D) COc1ccc(NC(=O)c2ccc(-c3ccc(-c4noc(C)n4)cc3C)cc2)cc1N1CCN(C)CC1
Thanks in advance: please rank these 4 entries by Ki, highest to lowest. Your answer should be the labels, listed in the requested order. B, D, C, A
